Hello, the source for this data is patent US10183014B2, in case you need it.

- Experiment summary: 1- to 5-day PK with topical ocular Compound-I formulations (Example 5)
- Format: in vivo, Dutch Belted rabbits
- Conditions: Dutch Belted, rabbit, peripheral retina, topical, 30 μL bilateral (each eye), Group 5: one dose day 1; 4 hr post-dose; read-out: Average Concentration Peripheral Retina

Compound | concentration at 4 h
Cl.NC(=O)c1c(OCc2c(F)cc(Br)cc2F)nsc1NC(=O)NCCCCN1CCCC1 [Compound-I, hydrochloride] | 31.2 nM

====

- Experiment summary: Ocular pharmacokinetics of formulations, Example 20-5
- Type: in vivo, Dutch Belted rabbits
- Conditions: Dutch Belted, rabbit, central choroid, topical, 4 mg/mL, 30 μL per eye, pH 6, Group 1: 4 mg/mL Ophthalmic Solution, pH 6 (Control), QD for 4 days; 1 hr post dose on Day 5; read-out: Central Choroid concentration

Molecule | concentration at 1 h
Cl.NC(=O)c1c(OCc2c(F)cc(Br)cc2F)nsc1NC(=O)NCCCCN1CCCC1 [Compound-I, hydrochloride] | 129 nM
